test: Metabolic stability in rat liver microsomes; assay type: in vitro ADME, SD rat; conditions: Sprague-Dawley, pH 7.4; rat liver microsomes 0.5 mg/mL, compound 1 μM, NADPH, 37° C.; read-out: t1/2 in rat liver microsomes
Quantity: half-life at 1 μM

# example entries with known answers
{"columns": ["Compound", "Quantity", "Readout value"],
 "data": [
  ["[2H]Cc1nc(C(=O)NCC(=O)O)c(O)c2ccc(Oc3ccccc3)cc12", "half-life at 1 μM", "> 2.42 h"],
  ["[2H]c1cccc(Oc2ccc3c(O)c(C(=O)NC([2H])([2H])C(=O)O)nc(C)c3c2)c1", "half-life at 1 μM", "> 2.42 h"]
]}

Challenge: Dear colleague, I am looking for the recorded half-life at 1 μM of the following compound: Cc1nc(C(=O)NCC(=O)O)c(O)c2ccc(Oc3ccccc3)cc12 [FG-4592, reference compound]
Response given: > 2.42 h
